# target system: Serine protease 1 (Bos taurus, UniProt P00760)
# Sequence (P00760 whole entry): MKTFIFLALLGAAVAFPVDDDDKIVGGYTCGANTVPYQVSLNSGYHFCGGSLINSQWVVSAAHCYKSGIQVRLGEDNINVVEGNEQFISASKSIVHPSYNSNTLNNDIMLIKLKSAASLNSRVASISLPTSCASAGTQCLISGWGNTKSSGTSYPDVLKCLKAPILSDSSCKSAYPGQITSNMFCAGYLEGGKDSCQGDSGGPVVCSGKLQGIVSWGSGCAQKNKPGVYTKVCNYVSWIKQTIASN
Below: molecules with Ki recorded for Serine protease 1 (Bos taurus, UniProt P00760) in separate published works.
measured property: Ki (nM)

[
  {
    "molecule": "N=C(N)c1cccc(CC(NS(=O)(=O)c2ccc3ccccc3c2)C(=O)N2CCN(S(=O)(=O)c3ccc4ccccc4c3)CC2)c1 (centres undefined)",
    "measured property": "Ki",
    "measured value": 400
  },
  {
    "molecule": "CC(=N)N1CCC(Oc2ccc(NC/C=C/c3cccc(C(=N)N)c3)cc2F)CC1",
    "measured property": "Ki",
    "measured value": 70
  },
  {
    "molecule": "N=C(N)N1CCCC(CNC(=O)[C@@H](Cc2ccccc2)NS(=O)(=O)c2ccc3ccccc3c2)C1 (some centres undefined)",
    "measured property": "Ki",
    "measured value": 42000
  },
  {
    "molecule": "CC(=O)N1CCC(Oc2ccc(N(C/C=C/c3cc(C(=N)N)ccc3O)C(=O)CCC(=O)O)cc2C(F)(F)F)CC1",
    "measured property": "Ki",
    "measured value": 891
  }
]
